Recorded values, source patent US8293274B2.

Experiment: in vivo
Conditions: male, Sprague-Dawley, rat, in vivo, po, 0.2 mg/kg
Procedure: Rats were fasted for 16 hours and then forced oral administration to the stomach was performed using an oral gastric tube for rats. Blood was collected from the tail vein prior to administration and 15 and 30 minutes, 1, 2, 3, 4, 6, 8 and 24 hours after administration. The collected blood was centrifuged at 4° C. for 15 minutes at 3,000 rpm to obtain plasma, and then the plasma concentrations of the various antitumor agents were measured. […]
Where a name gives a salt, the structure may show the parent alone.
ASSAY_METRIC: Cmax (ng/mL)
Write down the numeric answer in ng/mL and omit the unit.

Please report Cmax for the following compound: CC[C@]1(O)C[C@H]2CN(CCc3c([nH]c4ccccc34)[C@@](C(=O)OC)(c3cc4c(cc3OC)N(C=O)[C@H]3[C@@](O)(C(=O)OC)[C@H](OC(C)=O)[C@]5(CC)C=CCN6CC[C@]43[C@@H]65)C2)C1 [Comparative Test Example 4-4, vincristine sulfate]
90
